experiment: Multiple ascending-dose (MAD) study, plasma pharmacokinetics; assay type: in vivo, human; details: both sexes, human, plasma, oral, 20 mg, MAD 20 mg (N = 9), D1, after standard meal, mean (SD); read-out: AUC0–24h
ASSAY READOUT: AUC(0-t) (µg·h/mL)
Numeric answer only, unit µg·h/mL assumed.

Query: Consider the compound shown here: Cc1nc(-c2cnc(N3CCN(CCCc4c[nH]c5ccc(C#N)cc45)CC3)nc2)sc1C(N)=O [HEC113995PA·H2O] What is its recorded AUC(0-t)?
Result: 1.53

----------
experiment: Single ascending-dose (SAD) study, plasma pharmacokinetics; assay type: in vivo, human; details: both sexes, human, plasma, oral; SAD single dose 10 mg, N = 8, median (min, max); read-out: Tmax
ASSAY READOUT: Tmax (h)
Numeric answer only, unit h assumed.

Query: Consider the molecule shown here: Cc1nc(-c2cnc(N3CCN(CCCc4c[nH]c5ccc(C#N)cc45)CC3)nc2)sc1C(N)=O [HEC113995PA·H2O] What is its recorded Tmax?
Result: 6

----------
Assay: Single ascending-dose (SAD) study, plasma pharmacokinetics
Format: in vivo, human
Conditions: both sexes, human, plasma, oral; SAD single dose 40 mg, N = 8, mean (SD); read-out: AUC0-∞
Method: The study comprised a total of 7 dose groups (2.5, 5, 10, 20, 40, 60, and 80 mg groups, respectively). The first dose group (2.5 mg) consisted of 8 subjects, with 6 receiving HEC113995PA·H2O and 2 receiving placebo. […] Drug safety and tolerability were evaluated on day 2 and 4 in the first dose group and on day 4 and 7 in the second to seventh dose groups. […] The concentration of HEC113995PA·H2O in human plasma samples (K2EDTA) was quantitatively analyzed using the LC-MS/MS method. […]
ASSAY READOUT: AUC(0-inf) (ng·h/mL)
Numeric answer only, unit ng·h/mL assumed.

Query: Consider the compound shown here: Cc1nc(-c2cnc(N3CCN(CCCc4c[nH]c5ccc(C#N)cc45)CC3)nc2)sc1C(N)=O [HEC113995PA·H2O] What is its recorded AUC(0-inf)?
Result: 3010

----------
Test: Multiple ascending-dose (MAD) study, plasma pharmacokinetics
Type: in vivo, human
Settings: both sexes, human, plasma, oral; MAD D10; head prints 20 mg (N = 9); mean (SD)
Description: Three drug doses (10, 20 and 40 mg) were utilized. A total of 36 healthy subjects of both genders were assigned randomly to the three groups (n = 12), with10 subjects taking HEC113995PA·H2O tablets and 2 taking placebo. […] Safety and tolerability were evaluated on days 4, 8, 13 and 15. […] The concentration of HEC113995PA·H2O in human plasma samples (K2EDTA) was quantitatively analyzed using the LC-MS/MS method. […]
ASSAY READOUT: AUC(0-inf) (ng·h/mL)
Numeric answer only, unit ng·h/mL assumed.

Query: Consider the compound shown here: Cc1nc(-c2cnc(N3CCN(CCCc4c[nH]c5ccc(C#N)cc45)CC3)nc2)sc1C(N)=O [HEC113995PA·H2O] What is its recorded AUC(0-inf)?
Result: 2490

----------
test: Single ascending-dose (SAD) study, plasma pharmacokinetics; format: in vivo, human; conditions: both sexes, human, plasma, oral, 10 mg, SAD single dose 10 mg, N = 8, mean (SD); read-out: AUC0-t
ASSAY READOUT: AUC(0-t) (ng·h/mL)
Numeric answer only, unit ng·h/mL assumed.

Query: Consider the molecule shown here: Cc1nc(-c2cnc(N3CCN(CCCc4c[nH]c5ccc(C#N)cc45)CC3)nc2)sc1C(N)=O [HEC113995PA·H2O] What is its recorded AUC(0-t)?
Result: 801

# credit: paper PMC11979273
